This collection of values is drawn from paper PMC6274503.

target: α-amylase from porcine pancreas (Sus scrofa, UniProt P00690); experiment: α-amylase inhibitory activity (starch-iodine method); format: biochemical; settings: read-out: IC50 α-amylase; compounds and acarbose; max concentration tested 1 mM; '-' = inactive at maximum dose tested (<35% inhibition)
Sequence (P00690 16-511): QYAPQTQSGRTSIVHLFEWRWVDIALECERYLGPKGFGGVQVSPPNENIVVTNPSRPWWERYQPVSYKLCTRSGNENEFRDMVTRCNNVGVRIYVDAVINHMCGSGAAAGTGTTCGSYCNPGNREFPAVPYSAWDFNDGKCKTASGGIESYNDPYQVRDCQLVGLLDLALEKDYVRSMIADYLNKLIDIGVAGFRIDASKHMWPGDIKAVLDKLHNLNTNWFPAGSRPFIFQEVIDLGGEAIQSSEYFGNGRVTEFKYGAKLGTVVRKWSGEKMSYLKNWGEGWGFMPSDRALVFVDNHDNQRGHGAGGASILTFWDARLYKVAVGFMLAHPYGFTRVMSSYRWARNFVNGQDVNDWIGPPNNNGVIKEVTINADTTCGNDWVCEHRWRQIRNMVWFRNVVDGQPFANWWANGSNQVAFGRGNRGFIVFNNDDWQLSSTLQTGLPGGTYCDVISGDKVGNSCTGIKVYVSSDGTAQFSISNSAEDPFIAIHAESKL
pIC50: −log10 of the molar value.
Property Measured: pIC50

# count of solved cases: 2
[[record]]
compound = "O=C(O)/C=C\\c1ccc(O)cc1 [Compound 2, Cis-p-coumaric acid]"
target = "α-amylase from porcine pancreas (Sus scrofa, UniProt P00690)"
data_value = "< 4.20"

[[record]]
compound = "O=C(O)/C=C/c1ccc(O)cc1 [Compound 5, Trans-p-coumaric acid]"
target = "α-amylase from porcine pancreas (Sus scrofa, UniProt P00690)"
data_value = "< 4.20"


Turning now to a further compound:
Quick check: pIC50 of C[C@@H]1O[C@@H](Oc2c(-c3ccc(O)c(O)c3)oc3cc(O)cc(O)c3c2=O)[C@H](O)[C@H](O)[C@H]1O [Compound 9, Quercitrin] ?
< 4.20
